assay: Stability of analytes in rat plasma QC samples under processing and storage conditions; format: in vitro ADME; conditions: rat plasma, spiked 25 ng/mL, n = 6
readoutType: Measured concentration, −70°C for 21 days (ng/mL)
The figure you give is taken to be in ng/mL; do not add the unit.

compound: COc1cc(-c2oc3cc(O)cc(O)c3c(=O)c2O[C@@H]2O[C@H](CO)[C@@H](O)[C@H](O)[C@H]2O)ccc1O [Isorhamnetin-3-O-glucoside]
observedValue: 26.2

compound: O=c1c(O)c(-c2ccc(O)cc2)oc2cc(O)cc(O)c12
observedValue: 25.7

compound: C[C@@H]1O[C@@H](Oc2c(-c3ccc(O)c(O)c3)oc3cc(O)cc(O)c3c2=O)[C@H](O)[C@H](O)[C@H]1O
observedValue: 26.5

compound: O=c1c(O[C@@H]2O[C@H](CO)[C@@H](O)[C@H](O)[C@H]2O)c(-c2ccc(O)cc2)oc2cc(O)cc(O)c12
observedValue: 26.1

compound: O=c1c(O)c(-c2ccc(O)c(O)c2)oc2cc(O)cc(O)c12
observedValue: 25.6

Exercise: Form field: reported Measured concentration, −70°C for 21 days of `O=C(/C=C/c1ccc(O)c(O)c1)O[C@@H]1C[C@](O)(C(=O)O)C[C@@H](O)[C@H]1O`
Solution: 26.6

Exercise: Endpoint output: Measured concentration, −70°C for 21 days of `O=C(/C=C/c1ccc(O)c(O)c1)O[C@H]1[C@H](O)C[C@](O)(C(=O)O)C[C@H]1O` . Value?
Solution: 25.5

* * *

compounds and their reported Measured concentration, three freeze-thaw
test: Stability of analytes in rat plasma QC samples under processing and storage conditions; assay type: in vitro ADME; conditions: rat plasma, spiked 250 ng/mL, n = 6
Please state the figure in ng/mL; there is no need to write the unit.

compoundStructure: O=c1c(O)c(-c2ccc(O)cc2)oc2cc(O)cc(O)c12
observedValue: 252.6

Exercise: Measured concentration, three freeze-thaw lookup needed for `O=c1c(O)c(-c2ccc(O)c(O)c2)oc2cc(O)cc(O)c12` , thanks.
Solution: 253.2

Exercise: For the compound `C[C@@H]1O[C@@H](Oc2c(-c3ccc(O)c(O)c3)oc3cc(O)cc(O)c3c2=O)[C@H](O)[C@H](O)[C@H]1O` , what Measured concentration, three freeze-thaw is on record?
Solution: 261.4

* * *

Items are presented alongside their recorded Measured concentration, −70°C for 21 days.
assay: Stability of analytes in rat plasma QC samples under processing and storage conditions; assay type: in vitro ADME; settings: rat plasma, spiked 25 ng/mL, n = 6
Just the number in ng/mL, nothing appended.

compound: O=c1c(O[C@@H]2O[C@H](CO)[C@H](O)[C@H](O)[C@H]2O)c(-c2ccc(O)c(O)c2)oc2cc(O)cc(O)c12 [Hyperoside]
observedValue: 26.4

Exercise: Suppose we examine the compound O=c1cc(-c2ccc(O)cc2)oc2cc(O)cc(O)c12 [Apigenin] ; what Measured concentration, −70°C for 21 days value has been reported?
Solution: 26.5

Exercise: Entry O=c1cc(-c2ccc(O)c(O)c2)oc2cc(O)cc(O)c12 [Luteolin] : reported Measured concentration, −70°C for 21 days = ?
Solution: 27.4

Exercise: Any idea what Measured concentration, −70°C for 21 days was measured for O=C(O)/C=C/c1ccc(O)c(O)c1 [Caffeic acid] ?
Solution: 26.0

All values here come from paper PMC6925736.
